B1: ESRRG (parent)
chain: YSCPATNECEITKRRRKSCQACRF

- Variants of: B1
- RUN DESCRIPTION: protein stability index of a GFP-peptide fusion (GPS, HEK-293T) (PSI 1-6); higher = more stable;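 note: lentivirally expressed fusions sorted by FACS into six bins by GFP to DsRed ratio, PSI derived from sequencing read proportions per bin multiplied by bin number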
- EXPERIMENTAL PARAMETERS: c terminus: a fixed tail appended
Reported protein stability index by item:

Q) Need protein stability index of YSCPATNECEITKRRRKSCQPCRF [A21P] , thanks.
A) 3.29

Please look at the following variant next.
Q) Entry YSCPATEECEITKRRRKSCQACRF [N7E] : reported protein stability index = ?
A) 3.19

Value source: the supplement of paper PMC10567573
